tested on: RPMI-8226 leukemia; assay: NCI-60 one-dose screen, 48 h (100 = growth as untreated, 0 = no growth, -100 = all killed); conditions: 10 µM
This is part of a sample that, as a whole, favours compounds with a hit. Of some 83,000 tested, about 20% had one in any assay.
Listing of entries alongside the reported growth.
Numbers only here, please. The scale is %.

O=C(/C=C/c1ccc(Cl)cc1Cl)c1nc2ccccc2n1Cc1ccc(F)cc1; -31.1

Incoming: Look up and report measured growth for this entry: `C[C@H]1[C@H](OC(=O)CCC(=O)N(CCCc2cn(-c3ccc([N+](=O)[O-])cc3)nn2)CCNc2ccnc3cc(Cl)ccc23)O[C@@H]2OC3(C)CC[C@H]4[C@H](C)CC[C@@H]1[C@@]24OO3`
Outgoing: 28.7

Incoming: Look up and report measured growth for this entry: `O=C(/C=C/c1ccc(F)cc1)c1nc2ccccc2n1Cc1ccc(F)cc1`
Outgoing: -27.1

Incoming: Look up and report measured growth for this entry: CC(=C\C(=O)Oc1ccc2c3c1OC1C(O)CCC4(O)C(C2)N(CC2CCC2)CCC314)/C=C1\CCCc2ccccc21 (centres undefined)
Outgoing: 30.1

----------
system: HCC-2998 colon; assay: NCI-60 one-dose screen, 48 h; conditions: 10 µM
About 83,000 compounds went through this panel and 20% of them were active in at least one assay; those are over-represented in the sample as a whole. Activity calls are given as the source filed them. Rule for the calls: active = growth percent below 10; inactive = the rest.
Outcomes you can answer with include only these: yes (1) (active), no (0) (inactive)

Below are worked cases with known answers.
CC1=C(COCCOC(=O)c2ccc(S(=O)(=O)F)cc2)C2=C(C)C3(CC3)[C@@](C)(O)C(=O)C2=C1; yes (1)
CC(=C\C(=O)Oc1ccc2c3c1OC1C(O)CCC4(O)C(C2)N(CC2CCC2)CCC314)/C=C1\CCCc2ccccc21 (stereo unspecified); no (0)
COC(=O)C[C@](O)(CCC(C)C)C(=O)O[C@@H]1C(OC)=C[C@]23CCCN2CCc2cc4c(cc2[C@H]13)OCO4; yes (1)

Incoming: Query: recorded result category for `C=CCN=C([Se])NC(=O)c1ccc2c(c1)OCO2` in this test
Outgoing: no (0)

Incoming: Query: recorded result category for `O=C(NCCCCC(c1ccc(F)cc1)c1ccc(F)cc1)Nc1ccc([N+](=O)[O-])c(C(F)(F)F)c1` in this test
Outgoing: yes (1)

Incoming: Query: recorded result category for `CC[C@]12C=CCN3CC[C@@]4(c5ccc(OC)cc5N(C)[C@H]4[C@@](O)(C(=O)OC)[C@@H]1OC(=O)CCCC[P+](C1CCCCC1)(C1CCCCC1)C1CCCCC1)[C@@H]32` in this test
Outgoing: yes (1)

----------
system: SR leukemia; assay: NCI-60 one-dose screen, 48 h; conditions: 10 µM
About 83,000 compounds went through this panel and 20% of them were active in at least one assay; those are over-represented in the sample as a whole. Calls of active or inactive are those of the source. Rule for the calls: active = growth percent below 10; inactive = the rest.
Outcomes you can answer with include only these: YES for active, NO for inactive

O=C(/C=C/c1ccc(Cl)cc1)c1nc2ccccc2n1Cc1ccc(F)cc1; YES
C[C@H]1[C@@H](Oc2ccc(-c3cn(-c4ccnc5cc(Cl)ccc45)nn3)cc2)O[C@@H]2OC3(C)CC[C@H]4[C@H](C)CC[C@@H]1[C@@]24OO3; NO
COc1cc(OC)c(/C=C/C(=O)c2nc3ccccc3n2Cc2ccc(F)cc2)c(OC)c1; NO
C[C@H]1[C@@H](CC(=O)N[C@@H](Cc2coc3ccccc23)B(O)O)O[C@@H]2OC3(C)CC[C@H]4[C@H](C)CC[C@@H]1[C@@]24OO3; NO
CCOP(=O)(CC(F)(F)C(F)(F)F)OCC; YES
CCC[Se]C(=O)c1ccc(C(=O)[Se]CCC)s1; NO

Incoming: Query: recorded result category for CC12OOC(C)(OO1)C2CCC(=O)NCCCNc1ccnc2cc(Cl)ccc12 (stereo not drawn) in this test
Outgoing: YES

----------
system: CAKI-1 renal; test: NCI-60 one-dose screen, 48 h; conditions: 10 µM
Compounds without any hit were thinned out: in the full panel of roughly 83,000, 20% have a hit. Activity calls are given as the source filed them. How the source made its calls: active means growth percent below 10; inactive means the rest.
Outcomes you can answer with include only these: active, inactive

Below are worked cases with known answers.
COCCOCCOCCOc1ccc(-n2cc(CCCN(CCNc3ccnc4cc(Cl)ccc34)C(=O)CCC(=O)O[C@@H]3O[C@@H]4OC5(C)CC[C@H]6[C@H](C)CC[C@@H]([C@H]3C)[C@@]46OO5)nn2)cc1; inactive
CC(=C\C(=O)Oc1ccc2c3c1OC1C(O)CCC4(O)C(C2)N(CC2CCC2)CCC314)/C=C1\CCCc2ccccc21 (centres undefined); inactive
O=C(/C=C/c1ccc(Cl)cc1)c1nc2ccccc2n1Cc1ccc(F)cc1; inactive
C[C@H]1[C@@H](CC(=O)N[C@@H](Cc2coc3ccccc23)B(O)O)O[C@@H]2OC3(C)CC[C@H]4[C@H](C)CC[C@@H]1[C@@]24OO3; inactive

Incoming: Query: recorded result category for `COC(=O)C[C@](O)(CCCC(C)C)C(=O)O[C@H]1C(OC)=C[C@@]23CCCN2CCc2cc4c(cc2[C@@H]13)OCO4` in this test
Outgoing: active

Incoming: Query: recorded result category for `C=CCN=C([Se])NC(=O)c1ccc2c(c1)OCO2` in this test
Outgoing: inactive

----------
test system: HL-60(TB) leukemia; assay: NCI-60 one-dose screen, 48 h (100 = growth as untreated, 0 = no growth, -100 = all killed); details: 10 µM unless noted
About 83,000 compounds went through this panel and 20% of them were active in at least one assay; those are over-represented in the sample as a whole.
Listing of entries alongside the reported growth.
Numbers only here, please. The scale is %.

# annotated cases, reported growth shown
CCOC(=O)C1=C(N)N(c2ccccc2)C2=C(C(=O)CC(C)(C)C2)C1c1cccc(Cl)c1Cl (stereo not given); 46.2
CN1C(=O)/C(=C/c2ccco2)S/C1=N/c1nccs1; 102
C#CCOc1ccc(/C=N/Nc2nc(-c3cc4cc(Br)ccc4oc3=O)cs2)cc1OC; 71.1
Nc1nn2c(-c3cc4cc(Br)ccc4oc3=O)ccnc2c1N=Nc1ccc(Br)cc1; 98.5

# context switch: different compound, same growth
Incoming: Look up and report measured growth for this entry: `Oc1cncc(-c2ccc3ncnc(N4CCc5cc(F)c(Cl)cc54)c3c2)c1`
Outgoing: 84.7

----------
test system: T-47D breast; test: NCI-60 one-dose screen, 48 h; conditions: 10 µM
Compounds without any hit were thinned out: in the full panel of roughly 83,000, 20% have a hit. Calls of active or inactive are those of the source. Rule for the calls: active = growth percent below 10; inactive = the rest.
Outcomes you can answer with include only these: active, inactive

Below are worked cases with known answers.
O=C(/C=C/c1cccc(Br)c1)c1nc2ccccc2n1Cc1ccc(Br)cc1; active
C[C@H]1[C@H](OC(=O)CCC(=O)N(CCCc2cn(-c3ccc(C#N)cc3)nn2)CCNc2ccnc3cc(Cl)ccc23)O[C@@H]2OC3(C)CC[C@H]4[C@H](C)CC[C@@H]1[C@@]24OO3; inactive
COc1ccc(/C=C/C(=O)c2nc3ccccc3n2Cc2ccc(Br)cc2)cc1; inactive

Now take the following molecule into account.
Incoming: Query: recorded result category for `CC1=C(COCCOC(=O)c2ccc(S(=O)(=O)F)cc2)C2=C(C)C3(CC3)[C@@](C)(O)C(=O)C2=C1` in this test
Outgoing: active

----------
test system: NCI-H522 lung; assay: NCI-60 one-dose screen, 48 h; conditions: 10 µM
Compounds without any hit were thinned out: in the full panel of roughly 83,000, 20% have a hit. Calls of active or inactive are those of the source. How the source made its calls: active means growth percent below 10; inactive means the rest.
Outcomes you can answer with include only these: label 1 = active, label 0 = inactive

Below are worked cases with known answers.
CC12CCC3(CCC(=O)NCCCNc4ccnc5cc(Cl)ccc45)[C@@](C)(OO[C@]3(C)O1)O2; label 1
O=C(/C=C/c1ccccc1Cl)c1nc2ccccc2n1Cc1ccc(F)cc1; label 1
O=C(/C=C/c1ccccc1)c1nc2ccccc2n1Cc1ccc(Br)cc1; label 1
COc1cc2cc(C(=O)N3C[C@@H](CCl)c4c3cc(OC(=O)N3CCN(C)[C@@H]5CSSC[C@H]53)c3ccccc43)[nH]c2c(OC)c1OC; label 1
O=C(/C=C/c1ccc(Cl)cc1Cl)c1nc2ccccc2n1Cc1ccc(Br)cc1; label 0

Incoming: Query: recorded result category for `COc1cc2cc(C(=O)N3C[C@@H](CCl)c4c3cc(OC(=O)N3CCN(C(=O)CCC(=O)N5CCN(C)CC5)[C@@H]5CSSC[C@@H]53)c3ccccc43)[nH]c2c(OC)c1OC` in this test
Outgoing: label 1

Incoming: Query: recorded result category for `CC[C@@]12CC(C(=O)OC)=C3Nc4cc5c(cc4[C@@]34CCN(C[C@H]3O[C@H]31)[C@@H]24)[C@@H]1[C@H](O5)[C@@H](O)[C@@]2(CC)CC(C(=O)OC)=C3Nc4cc(OC)ccc4[C@@]34CCN1[C@@H]24` in this test
Outgoing: label 1
